Answer each item with its documented koff.
molecular target: T1, human PILRA, c-term His-Avi tag (human, UniProt Q9UKJ1 20-197, limits assumed); assay: SPR (Biacore), antibody captured, PILRA as analyte
T1 construct: not shown: C-terminal His-Avi tag
T1 sequence (Q9UKJ1 20-197 limits assumed): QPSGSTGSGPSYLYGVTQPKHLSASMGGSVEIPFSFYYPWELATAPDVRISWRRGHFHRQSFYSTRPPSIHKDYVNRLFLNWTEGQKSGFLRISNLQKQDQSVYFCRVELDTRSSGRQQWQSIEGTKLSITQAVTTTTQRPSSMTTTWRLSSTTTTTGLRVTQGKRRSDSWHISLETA
Supply the numeric figure in s⁻¹, leaving out any unit text.

Return the recorded koff value; entry: A14 (antibody, V domains shown, phage campaign) VH: QVQLVQSGAEVKKPGASVKVSCKASGYTFTSYYMYWVRQAPGQGLEWMGWMNPNSGNTGFAQKFQGRVTMTRDTSTSTVYMELSSLRSEDTAVYYCASGYYDSWSGETDYGMDVWGQGTTVTVSS VL: DIQMTQSPSSLSASVGDRVTITCRASQSISSYLNWYQQKPGKAPKLLIYDASTLESGVPSRFSGSGSGTDFTLTISSLQPEDFATYYCQQSYKTPYTFGQGTKLEIK
0.0012

Return the recorded koff value; entry: A1 (antibody, V domains shown, phage campaign) VH: QVQLVQSGAEVKKPGSSVKVSCKASGYTFINHDINWVRQAPGQGLEWMGWMNPNSGNTGYAQKFQGRVTITADESTSTAYMELSSLRSEDTAVYYCARDRRGSYYGLMDWFDPWGQGTLVTVSS VL: DIQMTQSPSSLSASVGDRVTITCRASQSISRWLAWYQQKPGKAPKLLIYDASNLETGVPSRFSGSGSGTDFTLTISSLQPEDFATYYCQQSYSTPSFGQGTKVEIK
0.0038

Return the recorded koff value; entry: A12 (antibody, V domains shown, phage campaign) VH: QVQLVQSGAEVKKPGASVKVSCKASGYNFNDYYIHWVRQAPGQGLEWMGWISAYNGNTNYAQKLQGRVTMTRDTSTSTVYMELSSLRSEDTAVYYCARDGWYCSSSSCYTGSDYWGQGTLVTVSS VL: DIQMTQSPSSLSASVGDRVTITCRASQSISNYLNWYQQKPGKAPKLLIYGASTLHSGVPSRFSGSGSGTDFTLTISSLQPEDFATYYCQQSYSTPFTFGPGTKVDIK
0.0012

Return the recorded koff value; entry: E15 (antibody, V domains shown, B-cell cloning campaign (mice)) VH: QVQLQQSGAELVKPGASVKLSCKASGNTFTIYDINWVRQRPEQGLEWIGWIFPGDGSTKYNGKFKGKATLTTDKSSSTAYMQLSRLTSEDSAVYFCARRAHYYGSSFDYWGQGTTLTVSS VL: DIQMTQSSSYLSVSLGGRVTITCKASDHINNWLAWYQQKPGNGPRLLISGAISLEIGVPSRFSGSGSGKEYTLSITSLQTEDVATYYCQQYWSPPWTFGGGTKLEIK
0.0017

Return the recorded koff value; entry: D5 (antibody, V domains shown, second hybridoma campaign) VH: EVKLDETGGGLVQPGRPMKLSCVASGFTFSDYWMNWVRQSPEKGLEWVAQIRNKLYNYETYYSDSVKGRFTISRDDSKSSVYLQMNNLRAEDMGIYYCTVGLAMDYWGQGTSVTVSS VL: DIQMTQSSSSFSVSLGDRVTITCKASEDIYNRLAWYQQKPGNAPRLLISGATSLETGVPSRFSGSGSGKEYTLNITSLQTEDVATYYCQQYWSTPTFGGGTKLEIK
0.0014

Return the recorded koff value; entry: E10 (antibody, V domains shown, phage campaign) VH: EVQLLESGGGLVKPGGSLRLSCAASGFTFSNYAMSWVRQAPGKGLEWVAVIYSGADTYYADSVKGRFTISRDDSKNTLYLQMNSLKTEDTAVYYCTRDIGLNYGDYELFDYWGQGTLVTVSS VL: DIVMTQSPLSLPVTPGEPASISCRSSQSLLHSNGYNYLDWYLQKPGQSPQLLIYDASNLETGVPDRFSGSGSGTDFTLKISRVEAEDVGVYYCMQGLQTPYVFGQGTKLEIK
0.0016

Return the recorded koff value; entry: C3 (antibody, V domains shown, first hybridoma campaign) VH: EVHLQQSGPELVKPGASVKISCKASGYTFTDYYLNWVKLSLGKSLEWIGDINPNDGDTSYNQTFKGKATLTVDKSSSTAYMELRSLTSEDSAVYYCARRASSYYSNYGWYFDVWGTGTTVTVSS VL: DILLTQSPAILSVSPGERVSFSCRASQSIGTSIHWYQQRTNGSPRLLIKFASESISGIPSRFSGSGSGTDFTLSINTVESEDIGDYYCQESNSWPTTFGAGTKLELK
0.0042

Return the recorded koff value; entry: C1 (antibody, V domains shown, first hybridoma campaign) VH: QIQLVQSGPELKKPGETVKISCKASGYTFTTYGMSWVKQAPGKGLKWMGWINTYSGVPTYADDFQGRFAFSLETSASTAYLQINNLKNEDTAPYFCVRDGYAAPYWGQGTLVTVSA VL: NIMMTQSPSSLAVSAGEKVTMRCKSSQSVLYSSNQKNYLAWYQQKPGQSPKLLIYWASTRESGVPDRFTGSGSGTDFTLTISSVQAEDLAVYYCHQYLSSWTFGGGTKLEIK
0.0037

Return the recorded koff value; entry: E19 (antibody, V domains shown, phage campaign; same VH/VL as A13) VH: QVQLVQSGAEVKKPGSSVKVSCKASGYLFSDYAMNWVRQAPGQGLEWVGWIIPNSGGTKFAQTFQGRVTITADESTSTAYMELSSLRSEDTAVYYCAREHGVVPADHYYYGMDVWGQGTTVTVSS VL: EIVMTQSPATLSVSPGERATLSCRASQSISSSYLAWYQQKPGQAPRLLIYGASTRATGIPARFSGSGSGTEFTLTISSLQSEDFAVYYCQQYGRFPWTFGQGTKVEIK
0.009

Return the recorded koff value; entry: A11 (antibody, V domains shown, phage campaign; same VH/VL as E17) VH: QVQLVQSGAEVKKPGASVKVSCKASGYTFTSYYMHWVRQAPGQGLEWMGWINPNNGDTNYAQKFQGRVTMTRDTSTSTVYMELSSLRSEDTAVYYCARAGYFDWLLDYYGMDVWGQGTTVTVSS VL: DIVMTQSPLSLPVTPGEPASISCRSSQSLLHSNGYNYLDWYLQKPGQSPQLLIYDASNLETGVPDRFSGSGSGTDFTLKISRVEAEDVGVYYCMQALQTPFGPGTKVDIK
0.0014

Value source: patent US20240425587A1
